Values were extracted from ChEMBL document CHEMBL1159131.

# tgt: Retinoic acid receptor beta (Homo sapiens)
# assay: Maximum retinoic acid receptor (RAR)-beta transactivation activity relative to retinoic acid at 10e-6 M
experimental.readout: Max (%)
Numbers only, in %.

These recorded examples may help you get a feel for the data.
molecule: CC1(C)CCC(C)(C)c2cc([S+]([O-])c3ccc4cc(C(=O)O)ccc4c3)ccc21 (centres undefined)
tgt: Retinoic acid receptor beta (Homo sapiens)
experimental.readout: Max
measure.unit: %
result.value: 52

molecule: CC1(C)CCC(C)(C)c2cc(C(O)c3ccc4cc(C(=O)O)ccc4c3)c(F)cc21 (centres undefined)
tgt: Retinoic acid receptor beta (Homo sapiens)
experimental.readout: Max
measure.unit: %
result.value: 30

molecule: CC1(C)CCC(C)(C)c2cc([S+]([O-])/C=C/c3ccc(C(=O)O)cc3)ccc21 (centres undefined)
tgt: Retinoic acid receptor beta (Homo sapiens)
experimental.readout: Max
measure.unit: %
result.value: 96

molecule: CC1(C)CCC(C)(C)c2c1cc(O)c(C(=O)c1ccc3cc(C(=O)O)ccc3c1)c2F
tgt: Retinoic acid receptor beta (Homo sapiens)
experimental.readout: Max
measure.unit: %
result.value: 87

molecule: CC1(C)CCC(C)(C)c2cc(S(=O)(=O)c3ccc4cc(C(=O)O)ccc4c3)ccc21
tgt: Retinoic acid receptor beta (Homo sapiens)
experimental.readout: Max
measure.unit: %
result.value: 32

molecule: CC1(C)CCC(C)(C)c2cc(C(O)c3ccc4cc(C(=O)O)ccc4c3)c(O)cc21 (centres undefined)
tgt: Retinoic acid receptor beta (Homo sapiens)
experimental.readout: Max
measure.unit: %
result.value: 18

molecule: CC1(C)CCC(C)(C)c2cc(Sc3ccc4cc(C(=O)O)ccc4c3)ccc21
tgt: Retinoic acid receptor beta (Homo sapiens)
experimental.readout: Max
measure.unit: %
result.value: 88

molecule: CC1(C)CCC(C)(C)c2cc(C(=O)c3ccc4cc(C(=O)O)ccc4c3O)ccc21
tgt: Retinoic acid receptor beta (Homo sapiens)
experimental.readout: Max
measure.unit: %
result.value: 0

Consider Cc1cc2c(cc1C(O)c1ccc3cc(C(=O)O)ccc3c1)C(C)(C)CCC2(C)C (centres undefined) . Its measured Max is 96

* * *

# tgt: Retinoic acid receptor beta (Homo sapiens)
# assay: Maximum retinoic acid receptor (RAR)-beta transactivation activity relative to retinoic acid at 10e-6 M
experimental.readout: Max (%)
One number for each entry, in %.

These recorded examples may help you get a feel for the data.
compound: Cc1cc2c(cc1C(=O)c1ccc3cc(C(=O)O)ccc3c1)C(C)(C)CCC2(C)C
measure.unit: %
Max: 81
--
compound: CC1(C)CCC(C)(C)c2cc(S/C=C/c3ccc(C(=O)O)cc3)ccc21
measure.unit: %
Max: 158
--
compound: CC1(C)CCC(C)(C)c2cc(Nc3ccc4cc(C(=O)O)ccc4c3)ccc21
measure.unit: %
Max: 92
--
compound: CC1(C)CCC(C)(C)c2c(F)cc(C(O)c3ccc4cc(C(=O)O)ccc4c3)cc21 (stereo not given)
measure.unit: %
Max: 0

Consider COc1c(C(=O)c2ccc3cc(C(=O)O)ccc3c2)ccc2c1C(C)(C)CCC2(C)C . Its measured Max is 0

* * *

# tgt: Retinoic acid receptor alpha (Homo sapiens)
# assay: Transcriptional activation activity against retinoic acid receptor RAR alpha
So I've got a bunch of compounds here, and I need their EC50 ratio values.
One number for each entry.

These recorded examples may help you get a feel for the data.
smiles.input: CC1(C)CCC(C)(C)c2cc(C(=O)c3ccc4cc(C(=O)O)ccc4c3)c(O)cc21
EC50 ratio: 25
//
smiles.input: CC1(C)CCC(C)(C)c2cc(Sc3ccc4cc(C(=O)O)ccc4c3)ccc21
EC50 ratio: 25
//
smiles.input: Cc1cc2c(cc1C(=O)c1ccc3cc(C(=O)O)ccc3c1)C(C)(C)CCC2(C)C
EC50 ratio: 25

Consider CC1(C)CCC(C)(C)c2cc(Nc3ccc4cc(C(=O)O)ccc4c3)ccc21 . Its measured EC50 ratio is 25
